Reported kon values are given for each entry in this list.
Biological target: T1, recombinant human MSLN (human, UniProt Q13421 296-580, limits assumed)
T1 construct: It was fixed to an anti-Penta His (HIS1K) sensor, so a His tag is implied; also called recombinant MSLN; mesothelin
T1 sequence (Q13421 other isoform, or with tags, fused parts or gaps limits assumed): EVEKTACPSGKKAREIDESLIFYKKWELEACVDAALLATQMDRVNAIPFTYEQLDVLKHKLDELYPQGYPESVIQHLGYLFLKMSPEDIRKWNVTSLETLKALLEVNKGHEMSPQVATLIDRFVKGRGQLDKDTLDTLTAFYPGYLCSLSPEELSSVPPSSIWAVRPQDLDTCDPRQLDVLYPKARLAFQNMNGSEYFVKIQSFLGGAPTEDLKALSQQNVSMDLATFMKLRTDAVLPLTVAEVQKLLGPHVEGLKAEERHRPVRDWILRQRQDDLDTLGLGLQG
Assay: BLI (Octet), MSLN on anti-Penta His sensor, antibody 3.125-50 nM
Procedure: Specifically, recombinant human MSLN was prepared at a concentration of 5 μg/ml in 1× kinetic buffer and used to treat a 96-well-plate at 200 μl/well. The MSLN after treatment was fixed to the anti-Penta His (HIS1K, Cat #18-5121, Fortebio) sensor. […] The interaction between the MSLN fixed to the sensor and the antibody at several concentrations was analyzed to calculate antigen-antibody affinity, and the results are shown in Table 4 below.

binder	unitAnnotation	kon
mouse/human chimeric MI323 IgG1 (antibody, V domains shown, Control antibody; also called mouse human chimeric MI323 IgG1 antibody; MI323 antibody) VH: EVQLQQSGPELVKPGTSVKISCKASGYSFTSYFIQWVKQRPGQGLEWIGWIFPGSGNTKYNEMFKGKATLAADTSSSTAYMQLSSLTSEDSAVYFCARSGGYQYYFDYWGQGTSVTVSS VL: DIVMTQSHKFMSTSVGDRVSITCKASQDVSTAVAWYQQKPGQSPKLLIYSASYRYPGVPDRFTGSGSGTDFTFTISSVQAEDLALYYCQQHYSTPWTFGGGTKLEIKR	M⁻¹ s⁻¹	454000
HMI323VL-1/HMI323VH-2 (antibody, human IgG1, kappa, V domains shown, also called humanized MI323 IgG1 (VL-1/VH-2)) VH: QVQLVQSGAEVKKPGSSVKVSCKASGYSFTSYFISWVRQAPGQGLEWMGGIFPGSGNANYAQKFQGRVTITADESTSTAYMELSSLRSEDTAVYYCARSGGYQYYFDYWGQGTLVTVSS VL: DIQMTQSPSSLSASVGDRVTITCRASQDVSTAVAWYQQKPGKAPKLLIYSASYRYPGVPSRFSGSGSGTDFTLTISSLQPEDFATYYCQQHYSTPWTFGGGTKLEIKR	M⁻¹ s⁻¹	1.86e+06
HMI323VL-1/HMI323VH-1 (antibody, human IgG1, kappa, V domains shown, also called humanized MI323 IgG1 (VL-1/VH-1)) VH: QVQLVQSGAEVKKPGASVKVSCKASGYSFTSYFMHWVRQAPGQRLEWMGWIFPGNGNTKYSQKFQGRVTITRDTSASTAYMELSSLRSEDTAVYYCARSGGYQYYFDYWGQGTLVTVSS VL: DIQMTQSPSSLSASVGDRVTITCRASQDVSTAVAWYQQKPGKAPKLLIYSASYRYPGVPSRFSGSGSGTDFTLTISSLQPEDFATYYCQQHYSTPWTFGGGTKLEIKR	M⁻¹ s⁻¹	665000
HMI323VL-1/HMI323VH-3 IgG1 (antibody, V domains shown, also called humanized MI323 IgG1) VH: EVQLVQSGAEVKKPGTSVKVSCKASGYSFTSYFIQWVRQAPGQGLEWIGWIFPGSGNTKYSQKFQGRVTITRDTSTSTAYMELSSLRSEDTAVYYCARSGGYQYYFDYWGQGTLVTVSS VL: DIQMTQSPSSLSASVGDRVTITCRASQDVSTAVAWYQQKPGKAPKLLIYSASYRYPGVPSRFSGSGSGTDFTLTISSLQPEDFATYYCQQHYSTPWTFGGGTKLEIKR	M⁻¹ s⁻¹	842000
